Kindly supply the reported growth values for the records listed here.
Test system: 786-0 renal
assay-text: NCI-60 one-dose screen, 48 h (100 = growth as untreated, 0 = no growth, -100 = all killed)
condition-label: 10 µM unless noted
The panel holds about 83,000 compounds, 20% with a hit somewhere; the sample as a whole holds those more often.
Response body: numeric value in %, unit text excluded.

Challenge: Look up and state reported growth for COc1ccc(-n2c(=O)n(-c3ccc(-c4nc5ccc(F)cc5s4)cc3)c(=O)c3cccnc32)cc1
Response given: 99.5

Challenge: Look up and state reported growth for C=C1/C(=C\C=C2/CCC[C@]3(C)[C@@H]([C@H](C)CCCC(C)(C)O)CC[C@@H]23)C[C@@H](OC(=O)CBr)C[C@@H]1O
Response given: 6.95

Challenge: Look up and state reported growth for CN1CCN(Cc2ccc(NC(=O)c3cncc(C#Cc4c(N)ncc5ccccc45)c3)cc2C(F)(F)F)CC1
Response given: -80.8

Challenge: Look up and state reported growth for COc1cccc(C2C3=C(COC3=O)N(CCO)c3cc4c(cc32)OCCO4)c1 (centres undefined)
Response given: 19.3

Challenge: Look up and state reported growth for C=CCOC(=O)C1=C(C)N(CC)C(=O)N(CC)C1c1c(Cl)n(C)c2ccccc12 (centres undefined)
Response given: 91.9

Challenge: Look up and state reported growth for CCOC(=O)c1cnc2sc(-c3ccc(OC)cc3)nc2c1Cl
Response given: 115

Challenge: Look up and state reported growth for Nc1ccc(Cl)c2c(=O)c3ccccc3[nH]c12
Response given: 77.4

Challenge: Look up and state reported growth for Cn1nc(-c2ccc(Cl)cc2)nc2c(=O)n(C)c(=O)nc1-2
Response given: -82.2

Challenge: Look up and state reported growth for COc1ccc(S(=O)(=O)N(C)c2oc(-c3ccc(Cl)cc3)nc2C#N)cc1
Response given: 98.2
